- tested system: Human immunodeficiency virus type 1 reverse transcriptase (Human immunodeficiency virus 1, UniProt Q72547)
pIC50: −log10 of the molar value.
observation type: pIC50

Past entries and their recorded results:
compound	pIC50
O=C(OC1COc2cc(O)ccc2C1)c1ccc(O)c(O)c1O (stereo not drawn)	4.44
O=C(OC1COc2cc(O)cc(O)c2C1)c1cccc(O)c1O (stereo not drawn)	4.43
O=C(O[C@@H]1Cc2c(O)cc(O)cc2O[C@@H]1c1cc(O)c(O)c(O)c1)c1cc(O)c(O)c(O)c1 [EPIGALOCATECHIN GALLATE]	6.14

a = O=C(OC1COc2cccc(O)c2C1)c1ccc(O)c(O)c1O (stereo not drawn)
b = O=C(OC1COc2cc(O)cc(O)c2C1)c1ccc(O)cc1O (stereo not drawn)
c = O=C(O[C@@H]1Cc2c(O)cc(O)cc2O[C@@H]1c1ccc(O)c(O)c1)c1cc(O)c(O)c(O)c1 [EPICATECHIN GALLATE]
d = O=C(OC1COc2cc(O)cc(O)c2C1)c1ccc(O)c(O)c1O (stereo not drawn)
e = O=C(OCCC1COc2cc(O)c(O)cc2C1)c1ccc(O)c(O)c1O (stereo not drawn)
INPUT: Arrange items by their pIC50 values in increasing order. To answer, write out the labels according to the requested order.
OUTPUT: b, a, e, d, c
